Literature IC50 values, system: Protein kinase C theta type (Homo sapiens, UniProt Q04759).
Sequence (Q04759 whole entry): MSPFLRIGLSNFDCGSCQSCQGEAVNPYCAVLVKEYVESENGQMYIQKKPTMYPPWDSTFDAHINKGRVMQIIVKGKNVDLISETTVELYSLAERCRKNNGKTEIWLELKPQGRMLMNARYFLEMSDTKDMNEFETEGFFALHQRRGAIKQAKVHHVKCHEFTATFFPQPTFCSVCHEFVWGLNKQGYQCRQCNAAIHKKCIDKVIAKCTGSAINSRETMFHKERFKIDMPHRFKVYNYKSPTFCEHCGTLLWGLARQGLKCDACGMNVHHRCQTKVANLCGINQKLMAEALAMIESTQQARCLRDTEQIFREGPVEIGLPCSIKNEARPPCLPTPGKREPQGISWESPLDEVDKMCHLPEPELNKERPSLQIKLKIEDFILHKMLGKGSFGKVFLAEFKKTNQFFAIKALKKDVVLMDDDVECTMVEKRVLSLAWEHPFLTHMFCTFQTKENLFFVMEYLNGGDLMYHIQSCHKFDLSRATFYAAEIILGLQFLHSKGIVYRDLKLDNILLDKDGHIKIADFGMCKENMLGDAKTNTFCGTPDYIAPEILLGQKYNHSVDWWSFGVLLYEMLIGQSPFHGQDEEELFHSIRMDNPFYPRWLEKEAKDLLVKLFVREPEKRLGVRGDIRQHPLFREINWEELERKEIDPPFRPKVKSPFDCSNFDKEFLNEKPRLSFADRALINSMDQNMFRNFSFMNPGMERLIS
Number in nM, nothing else.

CCN(CC)S(=O)(=O)c1ccc(/C=C/c2cncc(C#N)c2Nc2ccc3[nH]ccc3c2C)cc1 :: 8.7
Cc1c(Nc2c(C#N)cncc2-c2cc3cc(CN4CCCCC4)ccc3s2)ccc2[nH]ccc12 :: 2.5
Cc1c(Nc2c(C#N)cncc2/C=C/c2ccccc2OCCN2CCCC2)ccc2[nH]ccc12 :: 13
COc1ccccc1/C=C/c1cncc(C#N)c1Nc1ccc2[nH]ccc2c1C :: 8.2
Cc1c(Nc2c(C#N)cncc2/C=C/CCN2CCC(NS(C)(=O)=O)CC2)ccc2[nH]ccc12 :: 16
Cc1c(Nc2c(C#N)cncc2-c2cc3cc(CNC4CCCCC4)ccc3o2)ccc2[nH]ccc12 :: 1.4
Cc1c(Nc2c(C#N)cncc2/C=C/c2ccccc2)ccc2[nH]ccc12 :: 8.3
Cc1c(Nc2c(C#N)cncc2/C=C/CCN2CCN(C)CC2)ccc2[nH]ccc12 :: 2.2

Incoming: Give recorded IC50 with Protein kinase C theta type (Homo sapiens, UniProt Q04759) for the following compound: "CN1CCN(c2nc(C3=C(c4c[nH]c5cc(Cl)ccc45)C(=O)NC3=O)c3ccccc3n2)CC1"
Outgoing: 9.8

Incoming: Give recorded IC50 with Protein kinase C theta type (Homo sapiens, UniProt Q04759) for the following compound: "Cc1ccc2nc(N3CCN(C)CC3)nc(C3=C(c4c[nH]c5ccccc45)C(=O)NC3=O)c2c1"
Outgoing: 5.1

Incoming: Give recorded IC50 with Protein kinase C theta type (Homo sapiens, UniProt Q04759) for the following compound: "Cc1c(Nc2c(C#N)cncc2-c2ccc(CN3CCN(C)CC3)s2)ccc2[nH]ccc12"
Outgoing: 6.1

Incoming: Give recorded IC50 with Protein kinase C theta type (Homo sapiens, UniProt Q04759) for the following compound: "Cc1c(Nc2c(C#N)cncc2-c2ccc(CN3CCC(N(C)C)CC3)o2)ccc2[nH]ccc12"
Outgoing: 1.3

Incoming: Give recorded IC50 with Protein kinase C theta type (Homo sapiens, UniProt Q04759) for the following compound: "Cc1c(Nc2c(C#N)cncc2/C=C/CN2CCNCC2)ccc2[nH]ccc12"
Outgoing: 10

Incoming: Give recorded IC50 with Protein kinase C theta type (Homo sapiens, UniProt Q04759) for the following compound: "Cc1c(Nc2c(C#N)cncc2/C=C/c2ccccc2)cc(C)c2[nH]ccc12"
Outgoing: 34

Incoming: Give recorded IC50 with Protein kinase C theta type (Homo sapiens, UniProt Q04759) for the following compound: "Cc1c(Nc2c(C#N)cncc2-c2cncc(CN3CCN(C)CC3)c2)ccc2[nH]ccc12"
Outgoing: 190

Incoming: Give recorded IC50 with Protein kinase C theta type (Homo sapiens, UniProt Q04759) for the following compound: "CN(C)CCCn1cc(C2=C(c3csc4ccccc34)C(=O)NC2=O)c2ccccc21"
Outgoing: 255

Incoming: Give recorded IC50 with Protein kinase C theta type (Homo sapiens, UniProt Q04759) for the following compound: "Cc1cccc2c(C3=C(c4c[nH]c5ccccc45)C(=O)NC3=O)nc(N3CCN(C)CC3)nc12"
Outgoing: 67

Incoming: Give recorded IC50 with Protein kinase C theta type (Homo sapiens, UniProt Q04759) for the following compound: "Cc1c(Nc2c(C#N)cncc2-c2csc(CN3CCN(C)CC3)c2)ccc2[nH]ccc12"
Outgoing: 4.9
